# Test system: HS 578T breast
# ASSAY COMMENT: NCI tumour cell line growth inhibition, 48 h
# TGI listing for each entry below
READOUT TYPE: TGI (µM)

INSERT INTO assay_data (molecule, target_system, result_qualifier, test_result) VALUES
  ('CCCCOC(=O)c1c(C)[nH]c(/C=C2\N=C(c3ccc[nH]3)C=C2OC)c1C', 'HS 578T breast', '=', 1.19),
  ('COc1cc(C(=O)NN=C2c3ccccc3-c3ccccc32)cc(OC)c1OC', 'HS 578T breast', '=', 26.3),
  ('CCN(CC)CC(O)c1cc(-c2ccc(Cl)cc2)nc2c(C)c(Cl)ccc12 (configuration not stated)', 'HS 578T breast', '=', 4.33),
  ('CC1(C)[C@H]2Cc3cc4nc5ccccn5c4cc3[C@@H]1C2', 'HS 578T breast', '=', 37.7),
  ('CC1[C@@H]2CC=C3[C@H]4CCC5Cc6nc7c(nc6C[C@@]5(C)C4CC(=O)[C@]32CO[C@]12OC(C)(C)CC2O)CC1CC[C@@H]2C3=C[C@H]4O[C@@]5(O[C@@](C)(CO)C[C@@H]5O)C(C)[C@@]4(O)[C@]3(C)[C@@H](O)CC2[C@]1(C)C7 (some centres not stated)', 'HS 578T breast', '=', 0.00137),
  ('CCCCCCCCCCCCCCCCCCOc1ccccc1COP(=O)(O)OOCC[N+](C)(C)C', 'HS 578T breast', '=', 4.91),
  ('O=C(CCCn1ccnc1[N+](=O)[O-])NCCn1cnc([N+](=O)[O-])n1', 'HS 578T breast', '>', 100),
  ('Cn1c(=S)[nH]c(N)c(Cc2ccccc2)c1=O', 'HS 578T breast', '>', 100),
  ('CCOC(=O)CC1Nc2ccccc2C12CCc1c([nH]c3ccccc13)C2C(=O)OCC (configuration not stated)', 'HS 578T breast', '>', 100),
  ('CN(C)NC1=NS(=O)(=O)c2cc3c(=O)n(C)[nH]c3cc2S1', 'HS 578T breast', '>', 10),
  ('COC(=O)[C@H](Cc1ccccc1)NC(=O)N(CCNC(=O)OC(C)(C)C)c1ccccc1', 'HS 578T breast', '>', 100),
  ('COc1ccc(Nc2cc(=O)[nH]c(=O)[nH]2)cc1', 'HS 578T breast', '>', 100),
  ('CON[N+]([O-])=NC(C)C', 'HS 578T breast', '>', 100),
  ('Cc1cc(N=Cc2c(CO)cnc(C)c2O)c(N=Cc2c(CO)cnc(C)c2O)cc1C', 'HS 578T breast', '>', 100),
  ('O[C@@]12Cc3c([nH]c4ccccc34)[C@@H]3Oc4c(-c5ccccc5)ccc5c4[C@@]31CCN(CC1CC1)[C@@H]2C5', 'HS 578T breast', '=', 4.62),
  ('C#CCn1c(=O)ccn(/C(=C/C(=O)OCC)C(=O)OCC)c1=O', 'HS 578T breast', '=', 43.5),
  ('N=c1oc2cc(O)ccc2cc1C(=O)Nc1cccc2ccccc12', 'HS 578T breast', '>', 100),
  ('COc1ccc2c(ccc3c(C(=O)NCCCN(C)CCCNC(=O)c4cn(C)c5c4ccc4cc(OC)ccc45)cn(C)c32)c1', 'HS 578T breast', '=', 4.78),
  ('Nc1nc(N)c2c(n1)CCC(S(=O)(=O)c1ccc3ccccc3c1)C2 (configuration not stated)', 'HS 578T breast', '=', 77.6),
  ('NS(=O)(=O)c1ccc(NC(=O)c2ccc3nc4ccccc4c(Nc4ccc(S(N)(=O)=O)cc4)c3c2)cc1', 'HS 578T breast', '>', 100),
  ('CC1CC(=O)Nc2ccccc2N1C(=O)C1CC1 (configuration not stated)', 'HS 578T breast', '>', 100),
  ('COC(=O)C1Cc2cc3c(cc2C1)CCC3', 'HS 578T breast', '>', 100),
  ('COc1ccc(/C=C\c2cc(OC)c(OC)c(OC)c2)c(NS(=O)(=O)c2ccc(F)cc2)c1O', 'HS 578T breast', '>', 100),
  ('CCc1ncc(CO)n1Cc1cccc2ccccc12', 'HS 578T breast', '>', 100),
  ('CC(C)C(/C=C/c1ccc(Cl)cc1)=N\NC(=O)N/N=C(/C=C/c1ccc(Cl)cc1)C(C)C', 'HS 578T breast', '=', 50.8),
  ('S=C(S)NCCN1CCNCC1', 'HS 578T breast', '>', 100),
  ('CCN(CC)CCSc1c(C(C)=O)c(=O)n(-c2ccccc2)c(=S)n1-c1ccccc1', 'HS 578T breast', '>', 93.4),
  ('CC(C)c1c(O[Si](C(C)C)(C(C)C)C(C)C)cc2c(c1O)CC[C@H]1C(C)(C)CCC[C@]21C', 'HS 578T breast', '>', 100),
  ('O=C1N[C@H](C(=O)O)[C@@H](c2ccc(OCc3ccccc3)cc2)O1', 'HS 578T breast', '>', 100),
  ('Cc1cc(-c2cc(OC(=O)c3ccccc3)ccc2Cl)cc2nnc(Nc3ccc(OCCN4CCCC4)cc3)nc12', 'HS 578T breast', '=', 3.94),
  ('CC(=O)N[C@@H](Cc1ccc(OP(=O)(O)O)cc1)C(=O)N[C@H]1CCC(=O)N2CCC[C@@H](C(=O)NC3CCc4ccccc43)N2C1=O (some centres not stated)', 'HS 578T breast', '>', 25),
  ('COc1cc2c(cc1[N+](=O)[O-])C(=O)C(Br)(Br)CCC2', 'HS 578T breast', '=', 23.2),
  ('O=c1/c(=C\c2ccc(Br)cc2)sc2n1C(c1ccc(Br)cc1)C1=C(N=2)c2ccc3ccccc3c2OCC1 (configuration not stated)', 'HS 578T breast', '>', 100),
  ('O=C(N/N=C/c1ccncc1)c1ccc(F)cc1', 'HS 578T breast', '>', 40),
  ('O=C1OC(c2ccccc2Br)=N/C1=C/c1ccccc1', 'HS 578T breast', '>', 100),
  ('Cc1cc(C)c2c(c1)N(C)c1ncnc(-n3cnc4cc(C)ccc43)c1CC2C (configuration not stated)', 'HS 578T breast', '=', 31),
  ('[O-][N+]1=C2CCC/C(=N/O)C2(O)C2CCCCC21N1CCOCC1 (configuration not stated)', 'HS 578T breast', '>', 100),
  ('CC/C(=C(/c1ccc(OCCN(C)C)cc1)c1ccc(OC(=O)CCCCCCCCC(=O)c2c(C)[nH]c(/C=C3\N=C(c4ccc[nH]4)C=C3OC)c2C)cc1)c1ccccc1', 'HS 578T breast', '=', 85),
  ('Cc1cccc(N=N/C(=N\NC(=O)c2cc(Cl)ccc2O)c2ccc(N(CCC#N)CCC#N)cc2C)c1', 'HS 578T breast', '>', 100),
  ('COc1cc(C2CC(c3cccc(Nc4ccnc5cc(Cl)ccc45)c3)=NN2c2ccccc2)cc(OC)c1OC (configuration not stated)', 'HS 578T breast', '>', 100),
  ('Fc1ccc(Nc2nc3nonc3nc2Nc2ccc(I)cc2)cc1', 'HS 578T breast', '=', 13.6),
  ('CCOC(=O)c1cc([N+](=O)[O-])c(Sc2ncnc3nc[nH]c23)c([N+](=O)[O-])c1', 'HS 578T breast', '=', 49.1);

Where these numbers come from: PubChem BioAssay (NCI)
